System: ZC1/HGK, ZC2/TNIK, ZC3/MINK
Experiment: KiNativ assay
Format: binding
Conditions: H929 live cell
observable: inhibition (10 μM) (%)
Please respond with the number in % and leave the unit unwritten.

Sample `Nc1ncc(-c2ccc(NS(=O)(=O)C3CC3)cc2OC2CCCCC2)cc1-c1ccc2c(c1)CCNC2=O` — what was its inhibition (10 μM)? 96.6

Sample `COc1cc(NS(=O)(=O)C2CC2)ccc1-c1cnc(N)c(-c2ccc3c(c2)CCNC3=O)c1` — what was its inhibition (10 μM)? 96.3

Sample `Nc1ncc(-c2ccc(NS(=O)(=O)C3CC3)cc2F)cc1-c1ccc2c(c1)CCNC2=O` — what was its inhibition (10 μM)? 97.2

Sample `CN(C1CC1)S(=O)(=O)c1ccc(-c2cnc(N)c(-c3ccc4c(c3)CCNC4=O)c2)c(F)c1` — what was its inhibition (10 μM)? 94.5

Sample `Nc1ncc(-c2cccc([N+](=O)[O-])c2F)cc1-c1ccc2c(c1)CCNC2=O` — what was its inhibition (10 μM)? 96.7

Sample `Nc1ncc(-c2cccc3ncsc23)cc1-c1ccc2c(c1)CCNC2=O` — what was its inhibition (10 μM)? 97.0
